Test system: intestinal epithelial cell lines T84 monolayers incubated with IL-4
Assay: Effect of LC-PUFA on IL-4 mediated barrier disruption: TER and flux in T84 monolayers
Assay type: cell-based, human
Conditions: 100 μM, 48 hr pre-incubation then 48 hr co-incubation with IL-4 2 ng/ml
Catalogue of compounds with associated Resistance (IL-4 TER)

Here's what some known entries look like.
>  <COMPOUND>
CCCCCC=CCC=CCC=CCC=CCCCC(=O)O

>  <RESULT>
337 ↑ Ω.cm^2

$$$$
>  <COMPOUND>
CC/C=C\C/C=C\C/C=C\C/C=C\C/C=C\CCCC(=O)O

>  <RESULT>
375 ↑ Ω.cm^2

$$$$
>  <COMPOUND>
CCCCC/C=C\C/C=C\C/C=C\CCCCC(=O)O

>  <RESULT>
331 ↑ Ω.cm^2

$$$$

Per the records, this compound ( CCC=CCC=CCC=CCC=CCC=CC/C=C\CCC(=O)O [DHA, cis-4,7,10,13,16,19 docosahexaenoic acid] ) has Resistance (IL-4 TER) equal to 328 ↑ Ω.cm^2
